Target: Lyn(h) (Homo sapiens)
Construct: purchased Eurofins (KinaseProfiler service)
Sequence (P07948 whole entry): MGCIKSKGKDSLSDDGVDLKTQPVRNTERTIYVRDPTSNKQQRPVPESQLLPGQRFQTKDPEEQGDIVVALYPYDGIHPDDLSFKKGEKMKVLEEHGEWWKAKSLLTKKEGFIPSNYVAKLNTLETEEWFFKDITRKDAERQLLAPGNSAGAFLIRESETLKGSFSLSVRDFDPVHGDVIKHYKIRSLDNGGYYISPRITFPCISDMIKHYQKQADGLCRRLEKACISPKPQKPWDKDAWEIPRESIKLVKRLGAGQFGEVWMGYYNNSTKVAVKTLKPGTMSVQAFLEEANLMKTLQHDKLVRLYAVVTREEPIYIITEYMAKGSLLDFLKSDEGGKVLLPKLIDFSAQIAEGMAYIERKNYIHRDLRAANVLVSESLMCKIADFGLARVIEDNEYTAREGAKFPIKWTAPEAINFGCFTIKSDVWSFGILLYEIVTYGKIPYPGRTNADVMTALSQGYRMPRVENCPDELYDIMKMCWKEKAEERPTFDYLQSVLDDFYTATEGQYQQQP
Test: Eurofins KinaseProfiler off-target kinase inhibition
Format: biochemical
Procedure: In order to investigate the specificity of the inhibition of the target by the compound, in this study, the activity and selectivity of test compound 1 on the off-target kinases in related pathways were tested on the Eurofins kinaseProfiler™ platform, and compound screening and analysis were conducted using IC50 value as the indicator. Compound 1 was detected for each selected kinase using the standard Eurofins Kinase Profiler™ protocol, which followed the relevant standard operating procedures. […]
measurement_name: IC50 (nM)
Answers are plain numbers, in nM.

Sample c1cn2c(n1)c(Nc1ccc(N3CCOCC3)cc1)nc1ccc(-c3cn[nH]c3)cc12 [Compound 1] , system: Lyn(h) (Homo sapiens). Its IC50 is 934
